These entries and their values trace back to patent US20250215104A1.

So I've got a bunch of binders here, and I need their koff values.
# subjectOfTest: T1, cynomolgus suPAR (cynomolgus, UniProt Q9GK78 23-303, limits assumed)
# T1 construct: Target antigen of the off-rate screen; also called cynomolgus uPAR; cynoPLAUR-His
# procedureText: BLI (Octet) off-rate screen of scFv clones
Numbers only, in s⁻¹.

Answered cases to consult:
INSERT INTO assay_data (binder, observationtype, valuereported) VALUES
  ('suPAR_DB03_D05 (scFv, V domains shown, screened as scFv) VH: QVQLVQSGAEVKKPGASVKVSCKASGDNFTTYYMHWVRQAPGQGLEWMGWIDPENGNTIYAQKFQGRVTMTRDTSTSTVYMELSSLRSEDTAVYYCARGYDVDWFVYWGQGTLVTVSS VL: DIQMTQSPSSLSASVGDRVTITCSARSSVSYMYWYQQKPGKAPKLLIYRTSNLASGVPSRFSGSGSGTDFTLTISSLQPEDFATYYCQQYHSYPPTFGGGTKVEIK', 'koff', '3.55e-05'),
  ('suPAR_DB03_C07 (scFv, V domains shown, screened as scFv) VH: QVQLVQSGAEVKKPGASVKVSCKASGYTFTNYYVHWVRQAPGQGLEWMGWIDHENGSTIYDQKFQGRVTMTRDTSTSTVYMELSSLRSEDTAVYYCARGYDVDWFVYWGQGTLVTVSS VL: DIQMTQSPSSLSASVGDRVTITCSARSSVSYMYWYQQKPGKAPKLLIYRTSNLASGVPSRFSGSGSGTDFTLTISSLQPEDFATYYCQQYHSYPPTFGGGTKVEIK', 'koff', '5.78e-05');

Let us examine a further case.
query: Recorded koff of suPAR_DB03_A10 (scFv, V domains shown, screened as scFv) VH: QVQLVQSGAEVKKPGASVKVSCKASGYTFSNYYMHWVRQAPGQGLEWMGWIDHENGSTIYAQKFQGRVTMTRDTSTSTVYMELSSLRSEDTAVYYCARGYDVDWFVYWGQGTLVTVSS VL: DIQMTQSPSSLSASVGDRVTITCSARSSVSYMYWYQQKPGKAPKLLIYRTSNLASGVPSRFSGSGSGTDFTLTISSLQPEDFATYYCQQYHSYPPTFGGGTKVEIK , please.
result: 0.000685
